Where do the numbers come from? From patent US7662857B2.

# Test system: pancreatic exocrine function
# ASSAY: 13C-dipeptide breath test in chronic pancreatitis rats (oleic acid injected into pancreatic duct)
# Format: in vivo, rat
# EXPERIMENTAL_CONDITIONS: oral 35 μmol/kg, 15 min, mean±SD
ASSAY_METRIC: Δ^13C(‰) value at 15 min after the administration

Entry C[C@H](NC(=O)[C@H](Cc1ccccc1)NC(=O)c1ccccc1)[13C](=O)[O-].[Na+] [Na salt of Bz-Phe-(^13C-Ala), N-benzoyl-L-phenylalanyl-^13C-L-alanine] needs its Δ^13C(‰) value at 15 min after the administration filled in; supply it.
22.80±12.36 ‰

Entry C[C@H](NC(=O)[C@H](CO)NC(=O)c1ccccc1)[13C](=O)[O-].[Na+] [Na salt of Bz-Ser-(^13C-Ala), N-benzoyl-L-seryl-^13C-L-alanine] needs its Δ^13C(‰) value at 15 min after the administration filled in; supply it.
10.34±11.99 ‰

Entry C[C@H](NC(=O)[C@@H](NC(=O)c1ccccc1)[C@@H](C)O)[13C](=O)[O-].[Na+] [Na salt of Bz-Thr-(^13C-Ala), N-benzoyl-L-threonyl-^13C-L-alanine] needs its Δ^13C(‰) value at 15 min after the administration filled in; supply it.
19.78±24.70 ‰

Entry C[C@H](NC(=O)[C@H](CCC(N)=O)NC(=O)c1ccccc1)[13C](=O)[O-].[Na+] [Na salt of Bz-Gln-(^13C-Ala), N-benzoyl-L-glutaminyl-^13C-L-alanine] needs its Δ^13C(‰) value at 15 min after the administration filled in; supply it.
28.06±19.01 ‰

Entry CSCC[C@H](NC(=O)c1ccccc1)C(=O)N[C@@H](C)[13C](=O)[O-].[Na+] [Na salt of Bz-Met-(^13C-Ala), N-benzoyl-L-methionyl-^13C-L-alanine] needs its Δ^13C(‰) value at 15 min after the administration filled in; supply it.
14.59±8.50 ‰

Entry CC(C)[C@H](NC(=O)c1ccccc1)C(=O)N[C@@H](C)[13C](=O)[O-].[Na+] [Na salt of Bz-Val-(^13C-Ala), N-benzoyl-L-valyl-^13C-L-alanine] needs its Δ^13C(‰) value at 15 min after the administration filled in; supply it.
18.80±19.39 ‰

Entry C[C@H](NC(=O)[C@H](Cc1ccc(O)cc1)NC(=O)c1ccccc1)[13C](=O)[O-].[Na+] [Na salt of Bz-Tyr-(^13C-Ala), N-benzoyl-L-tyrosyl-^13C-L-alanine] needs its Δ^13C(‰) value at 15 min after the administration filled in; supply it.
24.68±9.48 ‰

====

# Tested on: pancreatic exocrine function
# ASSAY: 13C-dipeptide breath test in normal rats (Δ13C in exhaled CO2 after oral administration)
# Assay type: in vivo, rat
# EXPERIMENTAL_CONDITIONS: normal rats, oral 35 μmol/kg, 20 min, mean±SD
Exercise: state measured Δ^13C(‰) value at 20 min after the administration for each of the molecules provided.

Quote Δ^13C(‰) value at 20 min after the administration with test system pancreatic exocrine function for CC(C)[C@H](NC(=O)c1ccccc1)C(=O)N[C@@H](C)[13C](=O)[O-].[Na+] [Na salt of Bz-Val-(^13C-Ala), N-benzoyl-L-valyl-^13C-L-alanine]
45.38±6.53 ‰

Quote Δ^13C(‰) value at 20 min after the administration with test system pancreatic exocrine function for CSCC[C@H](NC(=O)c1ccccc1)C(=O)N[C@@H](C)[13C](=O)[O-].[Na+] [Na salt of Bz-Met-(^13C-Ala), N-benzoyl-L-methionyl-^13C-L-alanine]
38.58±3.79 ‰

Quote Δ^13C(‰) value at 20 min after the administration with test system pancreatic exocrine function for C[C@H](NC(=O)[C@H](CO)NC(=O)c1ccccc1)[13C](=O)[O-].[Na+] [Na salt of Bz-Ser-(^13C-Ala), N-benzoyl-L-seryl-^13C-L-alanine]
43.04±5.30 ‰

Quote Δ^13C(‰) value at 20 min after the administration with test system pancreatic exocrine function for C[C@H](NC(=O)[C@H](Cc1ccc(O)cc1)NC(=O)c1ccccc1)[13C](=O)[O-].[Na+] [Na salt of Bz-Tyr-(^13C-Ala), N-benzoyl-L-tyrosyl-^13C-L-alanine]
45.61±5.27 ‰
